Values compiled from patent US10335409B2.

# Test system: genotype 3a (S52) wild type transient HCV replicon in Huh-7-derived cells
# protocol-text: Transient-transfected HCV replicon EC50, genotype 3a wild type
# Type: cell-based, hepatitis C virus
# setup-conditions: Hepatitis C virus; transient-transfected replicon genotype 3a wild type, 72 h; read-out: EC50 3A WT
parameter-measured: EC50 (nM)

molecule	assay-system	parameter-measured	assay-result
COc1ccc2nc3c(nc2c1)O[C@H]1CN(C(=O)[C@H](C(C)(C)C)NC(=O)O[C@H]2CC4CC(C4)[C@@H]2CCCCC3)[C@H](C(=O)N[C@]2(C(=O)NS(=O)(=O)C3CC3)C[C@H]2C(F)F)[C@@H]1C	genotype 3a (S52) wild type transient HCV replicon in Huh-7-derived cells	EC50	642
CC[C@@H]1[C@@H]2CN(C(=O)[C@H](C(C)(C)C)NC(=O)O[C@@H]3C[C@H]3CCCCCc3nc4ccc(OC)cc4nc3O2)[C@@H]1C(=O)N[C@]1(C(=O)NS(=O)(=O)C2(C)CC2)C[C@H]1CC	genotype 3a (S52) wild type transient HCV replicon in Huh-7-derived cells	EC50	68
C[C@@H]1[C@@H]2CN(C(=O)[C@H](C(C)(C)C)NC(=O)O[C@@H]3C[C@@H]4C[C@@H]4[C@H]3CCCCCc3nc4ccc(C#N)cc4nc3O2)[C@@H]1C(=O)NC1(C(=O)NS(=O)(=O)C2(C)CC2)C[C@H]1C(F)F (stereo partly shown)	genotype 3a (S52) wild type transient HCV replicon in Huh-7-derived cells	EC50	5.8
CC[C@@H]1[C@@H]2CN(C(=O)[C@H](C(C)(C)C)NC(=O)O[C@@H]3C[C@H]3CCCC3CC3c3nc4ccc(OC)cc4nc3O2)[C@@H]1C(=O)N[C@]1(C(=O)NS(=O)(=O)C2(C)CC2)C[C@H]1C(F)F (stereo partly shown)	genotype 3a (S52) wild type transient HCV replicon in Huh-7-derived cells	EC50	128

---

# Test system: genotype 1a (H77) stable HCV replicon in Huh-7-derived cells
# protocol-text: Stable subgenomic HCV replicon EC50, genotype 1a (Renilla luciferase)
# Type: cell-based, hepatitis C virus
# setup-conditions: Hepatitis C virus, stable replicon genotype 1a, 72 h, read-out: EC50 1A RLUC
pEC50: −log10 of the molar value.
parameter-measured: pEC50

molecule	assay-system	assay-result
COc1ccc2nc3c(nc2c1)O[C@H]1CN(C(=O)[C@H](C(C)(C)C)NC(=O)O[C@@H]2C[C@@H]4C[C@@H]4[C@H]2CCCCC3(F)F)[C@H](C(=O)N[C@]2(C(=O)NS(=O)(=O)C3CC3)C[C@H]2C(F)F)[C@@H]1C [Example 62]	genotype 1a (H77) stable HCV replicon in Huh-7-derived cells	8.47
CC[C@@H]1[C@@H]2CN(C(=O)[C@H](C(C)(C)C)NC(=O)O[C@@H]3C[C@H]3CCCCCc3nc4ccc(OC)cc4nc3O2)[C@@H]1C(=O)N[C@]1(C(=O)NS(=O)(=O)C2(C)CC2)C[C@H]1C [Example 73]	genotype 1a (H77) stable HCV replicon in Huh-7-derived cells	8.10
COc1ccc2nc3c(nc2c1)O[C@H]1CN(C(=O)[C@H](C(C)(C)C)NC(=O)O[C@]2(C)C[C@H]2CCCCC3(F)F)[C@H](C(=O)N[C@]2(C(=O)NS(=O)(=O)C3(C)CC3)C[C@H]2C(F)F)[C@@H]1C [Example 76]	genotype 1a (H77) stable HCV replicon in Huh-7-derived cells	8.62
COc1ccc2nc3c(nc2c1)O[C@H]1CN(C(=O)[C@H](C(C)(C)C)NC(=O)O[C@@H]2C[C@H]2CCCCC3)[C@H](C(=O)N[C@]2(C(=O)NS(=O)(=O)C3CC3)C[C@H]2CCF)[C@@H]1C [Example 22]	genotype 1a (H77) stable HCV replicon in Huh-7-derived cells	7.82
CC[C@@]12C[C@H]1CCCCCc1nc3ccc(OC)cc3nc1O[C@H]1CN(C(=O)[C@H](C(C)(C)C)NC(=O)O2)[C@H](C(=O)N[C@]2(C(=O)NS(=O)(=O)C3(C)CC3)C[C@H]2C(F)F)[C@@H]1C [Example 43]	genotype 1a (H77) stable HCV replicon in Huh-7-derived cells	8.31
CC[C@@H]1[C@@H]2CN(C(=O)[C@H](C(C)(C)C)NC(=O)O[C@@H]3C[C@H]3CCCCCc3nc4ccc(OC)cc4nc3O2)[C@@H]1C(=O)N[C@]1(C(=O)NS(=O)(=O)C2(C)CC2)C[C@H]1CC(F)F [Example 67]	genotype 1a (H77) stable HCV replicon in Huh-7-derived cells	7.96
CC[C@@H]1[C@@H]2CN(C(=O)[C@H](C(C)(C)C)NC(=O)O[C@@H]3C[C@H]3CCCCC(F)(F)c3nc4ccc(OC)cc4nc3O2)[C@@H]1C(=O)N[C@]1(C(=O)NS(=O)(=O)C2(C)CC2)C[C@H]1CC(F)F [Example 35]	genotype 1a (H77) stable HCV replicon in Huh-7-derived cells	8.04
CC[C@@H]1[C@@H]2CN(C(=O)[C@H](C(C)(C)C)NC(=O)O[C@@H]3C[C@H]3CCCCCc3nc4ccc(OCC(F)(F)F)cc4nc3O2)[C@@H]1C(=O)N[C@]1(C(=O)NS(=O)(=O)C2(C)CC2)C[C@H]1C(F)F [Example 55]	genotype 1a (H77) stable HCV replicon in Huh-7-derived cells	7.89
CC[C@@H]1[C@@H]2CN(C(=O)[C@H](C(C)(C)C)NC(=O)O[C@]3(C)C[C@H]3CCCCCc3nc4ccc(OC)cc4nc3O2)[C@@H]1C(=O)N[C@]1(C(=O)NS(=O)(=O)C2(C)CC2)C[C@H]1C(F)F [Example 7]	genotype 1a (H77) stable HCV replicon in Huh-7-derived cells	8.31
CC[C@@H]1[C@@H]2CN(C(=O)[C@H](C(C)(C)C)NC(=O)O[C@@H]3C[C@H]3CCCCC(F)(F)c3nc4ccc(OC)cc4nc3O2)[C@@H]1C(=O)N[C@]1(C(=O)NS(=O)(=O)C2(C)CC2)C[C@H]1C(F)F [Example 17]	genotype 1a (H77) stable HCV replicon in Huh-7-derived cells	8.41
CC[C@@H]1[C@@H]2CN(C(=O)[C@H](C(C)(C)C)NC(=O)O[C@@H]3C[C@H]3CCCCCc3nc4ccc(OC)cc4nc3O2)[C@@H]1C(=O)N[C@]1(C(=O)NS(=O)(=O)C2CC2)C[C@H]1C(F)F [Example 2]	genotype 1a (H77) stable HCV replicon in Huh-7-derived cells	8.40
CCOc1ccc2nc3c(nc2c1)O[C@H]1CN(C(=O)[C@H](C(C)(C)C)NC(=O)O[C@@H]2C[C@H]2CCCCC3)[C@H](C(=O)N[C@]2(C(=O)NS(=O)(=O)C3(C)CC3)C[C@H]2C(F)F)[C@@H]1CC [Example 69]	genotype 1a (H77) stable HCV replicon in Huh-7-derived cells	8.28
COc1ccc2nc3c(nc2c1)O[C@H]1CN(C(=O)[C@H](C(C)(C)C)NC(=O)O[C@@H]2CCC[C@H]2CCCCC3)[C@H](C(=O)N[C@]2(C(=O)NS(=O)(=O)C3(C)CC3)C[C@H]2C(F)F)[C@@H]1C [Example 27]	genotype 1a (H77) stable HCV replicon in Huh-7-derived cells	8.18
CCC[C@@H]1[C@@H]2CN(C(=O)[C@H](C(C)(C)C)NC(=O)O[C@@H]3C[C@H]3CCCCC(F)(F)c3nc4ccc(OC)cc4nc3O2)[C@@H]1C(=O)N[C@]1(C(=O)NS(=O)(=O)C2(C)CC2)C[C@H]1C(F)F [Example 65]	genotype 1a (H77) stable HCV replicon in Huh-7-derived cells	7.92
CC[C@@H]1[C@@H]2CN(C(=O)[C@H](C(C)(C)C)NC(=O)O[C@@H]3C[C@@H]4C[C@@H]4[C@H]3CCCCCc3nc4ccc(OC)cc4nc3O2)[C@@H]1C(=O)N[C@]1(C(=O)NS(=O)(=O)C2CC2)C[C@H]1C(F)F [Example 70]	genotype 1a (H77) stable HCV replicon in Huh-7-derived cells	8.08
COc1ccc2nc3c(nc2c1)O[C@H]1CN(C(=O)[C@H](C(C)(C)C)NC(=O)O[C@@H]2C[C@H]2CCCCC3)[C@H](C(=O)N[C@]2(C(=O)NS(=O)(=O)C3(C)CC3)C[C@H]2C(F)F)[C@@H]1CC(C)C [Example 30]	genotype 1a (H77) stable HCV replicon in Huh-7-derived cells	7.26
CC[C@@H]1[C@@H]2CN(C(=O)[C@H](C(C)(C)C)NC(=O)O[C@@H]3[C@H]4CC[C@H](C4)[C@H]3CCCCCc3nc4ccc(OC)cc4nc3O2)[C@@H]1C(=O)N[C@]1(C(=O)NS(=O)(=O)C2(C)CC2)C[C@H]1C(F)F [Example 37]	genotype 1a (H77) stable HCV replicon in Huh-7-derived cells	7.62
